test.target: Inadl_9, Q8NI35
Sequence (Q8NI35 1530-1615): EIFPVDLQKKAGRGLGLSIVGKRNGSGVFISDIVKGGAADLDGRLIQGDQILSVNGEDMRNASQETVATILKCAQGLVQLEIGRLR
experiment.summary: holdup assay
Parameters: key: below the threshold = too weak to quantify, mostly under pKd 3.1 to 4
condition.notes: plain residues with an end cap or a label only (N-terminal biotin on a linker: ahx)
measured.attribute: pKd

{"binder": "HSATSVHTSV [MTMR1, Q13613]", "observed": 3.57}
{"binder": "YNSFLSVTTV [PDZRN3, Q9UPQ7]", "observed": "below the threshold"}
{"binder": "SAPATLSSRA [PDLIM2, Q96JY6]", "observed": "below the threshold"}
{"binder": "VNENQKEYFF [CNTNAP4, Q9C0A0]", "observed": "below the threshold"}
{"binder": "AKPQPVDSWV [ARVCF, O00192]", "observed": 3.74}
{"binder": "KEYDDELTFF [USH1C, Q9Y6N9]", "observed": "below the threshold"}
{"binder": "ADENEQVSAV [RAPGEF6, Q8TEU7]", "observed": "below the threshold"}
{"binder": "SKKNELFSNL [NHERF1, O14745]", "observed": "below the threshold"}
{"binder": "PKMKLNETSF [SHKBP1, Q8TBC3]", "observed": "below the threshold"}
{"binder": "KDECVIATEV [DLL1, O00548]", "observed": 3.87}

Source listed as paper PMC9482650.
